target: PIP4K2C (Homo sapiens, UniProt Q8TBX8); test: HiBiT PIP4K2C degradation assay in MOLT-4 cells (endogenous PIP4K2C C-terminally tagged with HiBiT); format: cell-based; design: untagged in primary human PBMCs and monocyte-derived dendritic cells; settings: 24 hours incubation, MOLT-4, top concentration 10 micromolar; read-out: HiBIT-degradation MOLT4 PIP4k2C 24 hours DC50
Attribute Measured: DC50

Here are 4 molecules together with their reported answers.
Molecule	DC50
O=C1CCC(n2c(=O)oc3cc(C4CCN(CC5CCN(CC(=O)N6CCC(Nc7ncc(F)c(-c8cccc(N9CCOC9=O)c8)n7)CC6)CC5)CC4)ccc32)C(=O)N1 (centres unmarked) [Compound 372]	< 0.5 µM
Cn1nc(C2CCC(=O)NC2=O)c2ccc(C3CCN(CCC4CCN(C(=O)[C@@H]5CCC[C@H](Nc6ncc(F)c(-c7cccc(-n8ccccc8=O)c7)n6)C5)CC4)CC3)cc21 (some centres unmarked) [Compound 351]	< 0.5 µM
O=C1CCC(n2c(=O)oc3cc(C4CCN(CC5CCN(CC(=O)N6CCC(Nc7ncc(F)c(-c8cccc(-c9ccc[nH]c9=O)c8)n7)CC6)CC5)CC4)ccc32)C(=O)N1 (centres unmarked) [Compound 379]	< 0.5 µM
Cn1c(=O)n(C2CCC(=O)NC2=O)c2ccc(C3CCN(CCC4CCN(C(=O)[C@@H]5CCC[C@H](Nc6ncc(F)c(-c7cccc(-n8ccccc8=O)c7)n6)C5)CC4)CC3)cc21 (some centres unmarked) [Compound 335]	< 0.5 µM

Please find the next molecule below.
Input: Let me know recorded DC50 for O=C1CCC(N2Cc3cc(OC4CCN(CC5CCN(CC(=O)N6CCC(Nc7ncc(Cl)c(-c8cccc(-c9ccccc9)c8)n7)CC6)CC5)CC4)ccc3C2=O)C(=O)N1 (centres unmarked) [Compound 85] , thanks.
Output: < 0.5 µM

----------
biological target: PIP4K2C (Homo sapiens, UniProt Q8TBX8); assay: Enzyme Binding Assay (KINOMEscan): active site-directed competition binding to an immobilized ligand; conditions: 11-point dose response, duplicate, top concentration 5 micromolar; read-out: Pip4k2c Kd: IC50
pIC50: −log10 of the molar value.
Attribute Measured: pIC50

Here are 5 compounds together with their reported answers.
> print(dat)
                                   compound  attribute.measured  recorded.measurement
1  CC(=O)N[C@H]1CC[C@H](Nc2ncc(Cl)c(C3CCCN(C(=O)C4CC4)C3)n2)CC1 (stereo partly drawn)               pIC50                > 6.30
2  CC(=O)N[C@H]1CC[C@H](Nc2ncc(F)c(-c3cccc(-c4ccc[nH]c4=O)c3)n2)CC1               pIC50                > 6.30
3  CC(=O)N1CCC(Nc2ncc(Cl)c(C3CCCN(C(=O)c4ccc(F)cc4)C3)n2)CC1 (stereo not drawn)               pIC50          5.30 to 6.00
4  CC(=O)N1CCC(Nc2ncc(F)c(N3CCCC(c4ccc(=O)[nH]c4)C3)n2)CC1 (stereo not drawn)               pIC50          6.00 to 6.30
5  CC(=O)N1CCC(Nc2ncc(Cl)c(-c3cc(C4CC4)[nH]n3)n2)CC1               pIC50                > 6.30

Input: Provide pIC50, tested on PIP4K2C (Homo sapiens, UniProt Q8TBX8), for NC(=O)[C@H]1CC[C@H](Nc2ncc(F)c(-c3cccc(-c4cc[nH]c(=O)c4)c3)n2)CC1 .
Output: > 6.30

Input: Provide pIC50, tested on PIP4K2C (Homo sapiens, UniProt Q8TBX8), for CC(=O)N[C@H]1CC[C@H](Nc2ncc(Cl)c(-c3cc(C4CC4)[nH]n3)n2)CC1 .
Output: > 6.30

Input: Provide pIC50, tested on PIP4K2C (Homo sapiens, UniProt Q8TBX8), for CC(=O)N1CCC(Nc2ncc(Cl)c(-c3ccn(C4CCCCC4)n3)n2)CC1 .
Output: 5.30 to 6.00

Input: Provide pIC50, tested on PIP4K2C (Homo sapiens, UniProt Q8TBX8), for CC(=O)N[C@H]1CCC[C@@H](Nc2ncc(Cl)c(-c3cccc(-c4ccccc4)c3)n2)C1 (relative stereo) .
Output: > 6.30

Input: Provide pIC50, tested on PIP4K2C (Homo sapiens, UniProt Q8TBX8), for NC(=O)C1CCC(Nc2ncc(Cl)c(-c3cccc(-c4ccccc4)c3)n2)CC1 (stereo not drawn) .
Output: 6.00 to 6.30

Input: Provide pIC50, tested on PIP4K2C (Homo sapiens, UniProt Q8TBX8), for CC(=O)N1CCC(Nc2ncc(F)c(N3CCC[C@H](C(=O)N4CC[C@H](O)C4)C3)n2)CC1 .
Output: 5.30 to 6.00

Input: Provide pIC50, tested on PIP4K2C (Homo sapiens, UniProt Q8TBX8), for NC(=O)[C@@H]1CCC[C@H](Nc2ncc(F)c(-c3cccc(C4CCC4)c3)n2)C1 (relative stereo) .
Output: > 6.30

Input: Provide pIC50, tested on PIP4K2C (Homo sapiens, UniProt Q8TBX8), for CC(=O)N1CCC[C@H](Nc2ncc(Cl)c(-c3ccc(=O)n(-c4ccc(F)cc4)c3)n2)C1 .
Output: 6.00 to 6.30

Input: Provide pIC50, tested on PIP4K2C (Homo sapiens, UniProt Q8TBX8), for CC(=O)N[C@H]1CC[C@H](Nc2ncc(Cl)c(-c3cccc(-c4ccc(F)cc4)n3)n2)CC1 .
Output: > 6.30

Input: Provide pIC50, tested on PIP4K2C (Homo sapiens, UniProt Q8TBX8), for CC(=O)N1CCCC(c2cccc(-c3nc(N[C@@H]4CCC[C@H](C(N)=O)C4)ncc3F)c2)C1 (relative stereo) .
Output: > 6.30

----------
The entries below are paired with their reported DC50.
biological target: UniProt:Q8TBX8; experiment: HiBiT PIP4K2C degradation assay in MOLT-4 cells (endogenous PIP4K2C C-terminally tagged with HiBiT); type: cell-based; design: untagged in primary human PBMCs and monocyte-derived dendritic cells; details: 6 hours of incubation time, rather than 24 hours; MOLT-4, top concentration 10 micromolar; read-out: HiBIT-degradation MOLT4 PIP4k2C DC50 (6 hours, marked *)

Here are 2 compounds together with their reported answers.
Compound	DC50
O=C1CCC(Nc2ccc(C3CCN(C[C@H]4CC[C@H](COC(=O)N5CCC(Nc6ncc(F)c(-c7cccc(-n8ccccc8=O)c7)n6)CC5)CC4)CC3)c(F)c2)C(=O)N1 (stereo partly drawn) [Compound 644]	< 500 nM
O=C1CCC(Nc2ccc(C3CCN(C4CCN(C(=O)O[C@H]5CC[C@H](Nc6ncc(F)c(-c7cccc(-c8ccccc8)c7)n6)CC5)CC4)CC3)c(F)c2)C(=O)N1 (stereo partly drawn) [Compound 651]	< 500 nM

Input: Let me know recorded DC50 for O=C1CCC(Nc2ccc(N3CCC(N4CCC(C(=O)N[C@H]5CC[C@H](Nc6ncc(F)c(-c7cccc(C8CC8)c7)n6)CC5)CC4)C(F)(F)C3)c(F)c2)C(=O)N1 (stereo partly drawn) [Compound 497] , thanks.
Output: < 500 nM

----------
Biological target: UniProt Q8TBX8
Sequence (Q8TBX8 1-421): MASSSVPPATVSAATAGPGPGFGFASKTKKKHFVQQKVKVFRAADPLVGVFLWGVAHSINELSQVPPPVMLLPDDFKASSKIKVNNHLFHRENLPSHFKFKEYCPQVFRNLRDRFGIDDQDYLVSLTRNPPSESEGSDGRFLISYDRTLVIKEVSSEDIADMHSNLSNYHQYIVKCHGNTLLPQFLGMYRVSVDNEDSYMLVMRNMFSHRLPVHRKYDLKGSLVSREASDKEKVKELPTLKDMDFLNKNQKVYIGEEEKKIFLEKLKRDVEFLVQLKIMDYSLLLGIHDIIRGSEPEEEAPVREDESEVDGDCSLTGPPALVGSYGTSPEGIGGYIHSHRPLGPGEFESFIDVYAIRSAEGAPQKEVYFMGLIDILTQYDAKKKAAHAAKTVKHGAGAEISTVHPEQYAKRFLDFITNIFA
Assay: Enzyme Binding Assay (KINOMEscan): active site-directed competition binding to an immobilized ligand
Details: 11-point dose response, duplicate, top concentration 5 micromolar; read-out: Pip4k2c Kd: IC50
Attribute Measured: IC50

Here are 3 molecules together with their reported answers.
> print(dat)
                                   molecule  attribute.measured  recorded.measurement
1  CC(=O)N1CCC(Nc2ncc(F)c(-c3cccc(-c4ncc[nH]4)c3)n2)CC1 [Compound 239]                IC50              < 0.5 µM
2  CC(=O)N1CCCC(Nc2ncc(Cl)c(-c3cccc(-c4ccccc4)c3)n2)C1 (stereo not shown) [Compound 21]                IC50              < 0.5 µM
3  CC(=O)N1CCC(Nc2ncc(F)c(-c3cccc(N4CCC[C@@H](O)C4)c3)n2)CC1 [Compound 209]                IC50              < 0.5 µM

Please find the next molecule below.
Input: Let me know recorded IC50 for CC(=O)N[C@H]1CC[C@H](Nc2ncc(Cl)c(C3CCN(C(=O)c4ccc(F)cc4)C3)n2)CC1 (stereo partly shown) [Compound 126] , thanks.
Output: 1 to 5 µM

Cited source for all entries: patent US20260355196A1
